- Test system: OVCAR-5 ovarian
- method-description: NCI-60 one-dose screen, 48 h (100 = growth as untreated, 0 = no growth, -100 = all killed)
- experimental-conditions: 10 µM unless noted
The panel holds about 83,000 compounds, 20% with a hit somewhere; the sample as a whole holds those more often. The source made the active and inactive calls. Rule for the calls: active = growth percent below 10; inactive = the rest.
reported-metric: growth

Worked cases, answers included:
compound | result
C=C(C)COc1ccc(C(C)(C)C)cc1 | 106% (inactive)
O=c1n(CC2CO2)c(=O)n(CC2CO2)n1CC1CO1 (stereo unspecified) | 130% (inactive)
CC(=O)NC(O)C(Cl)Cl (stereo unspecified) | 97.2% (inactive)
CC(C)=CCC[C@@H](C)[C@H]1CC[C@@]2(C)C3=C(CC[C@]12C)[C@@]1(C)CC[C@H](O)C(C)(C)[C@@H]1CC3 | 107% (inactive)

Return growth (reported value) for this compound: COc1cccc(N=CNc2cccc(OC)c2)c1 103% (inactive)

Retrieve growth measured for O=C(CC(CC(=O)c1ccccc1)c1ccccn1)c1ccccc1 and print it. 105% (inactive)

----------
Recorded growth by entry
- Test system: NCI/ADR-RES ovarian
- method-description: NCI-60 one-dose screen, 48 h (100 = growth as untreated, 0 = no growth, -100 = all killed)
- experimental-conditions: 10 µM unless noted
About 83,000 compounds went through this panel and 20% of them were active in at least one assay; those are over-represented in the sample as a whole.
Express it in %; write the number only.

Look up growth of CC(=O)NNC(=S)/N=C\C(C(=O)c1ccccc1)=C(/O)c1ccccc1 and report it. 99

Give the measured growth for Oc1cccnc1CN1CCCC1 108

Indicate its recorded growth; the compound in question is O=C(O)Cc1ccccn1 111

In one line, give reported growth of the entry CC(=O)NCNC(C)=O . 111

Consider the compound O=c1n(CC2CO2)c(=O)n(CC2CO2)n1CC1CO1 (stereo not given) and give its recorded growth. 65.5

----------
- Test system: UACC-257 melanoma
- method-description: NCI-60 one-dose screen, 48 h (100 = growth as untreated, 0 = no growth, -100 = all killed)
- experimental-conditions: 10 µM unless noted
The panel holds about 83,000 compounds, 20% with a hit somewhere; the sample as a whole holds those more often.
Below is a list of entries, each paired with its recorded growth value.
Enter your answer as a number in %; do not include the unit.

Reference set, count: 3
compound | measured-target | result-unit | growth
CCCNS(=O)(=O)c1ccc(Cl)cc1 | UACC-257 melanoma | % | 101
O=Cc1ccc(Cl)c(Cl)c1 | UACC-257 melanoma | % | 96.4
CCCCN(C=S)CCCC | UACC-257 melanoma | % | 99.6

Tell me its growth on UACC-257 melanoma: Oc1cccc(CNC2CCCCC2)c1 119

Give measured growth for CCC(C)C1CCC(O)CC1 (stereo not drawn) (UACC-257 melanoma). 103

Enter measured growth, system UACC-257 melanoma, for the compound shown: N#C/C(=C\c1ccc(C#N)cc1)C(=O)c1ccccc1 97.7

Give measured growth for CCC(=O)Oc1ccc2ccccc2c1 (UACC-257 melanoma). 96.6

// output growth; input COc1cc(-c2ccc(NC(=O)CC(C)=O)c(OC)c2)ccc1NC(=O)CC(C)=O ; system UACC-257 melanoma 89.3

Look up UACC-257 melanoma data: growth of BrCc1cccc(C[P+](c2ccccc2)(c2ccccc2)c2ccccc2)c1 , then report it. 14.2

Specify the recorded growth for CC1CCC(C)(C)c2ccccc21 (stereo not drawn) , system: UACC-257 melanoma. 100

Give reported growth for CCOC(=O)c1c[nH][nH]c1=O (UACC-257 melanoma) 59.1

State growth on UACC-257 melanoma. Entry: O=C(O)Cc1ccc(Cl)cc1 111

State growth on UACC-257 melanoma. Entry: C=CC(C)(C)n1cc(C2=C(O)C(=O)C(c3cn(C(C)(C)C=C)c4ccccc34)=C(O)C2=O)c2ccccc21 94

Consider the compound COC(=O)C1=C(C)C(=O)CC1 tested on UACC-257 melanoma; state its growth. 110

State, for UACC-257 melanoma, measured growth of the compound listed here: CC(=O)O[C@H]1CC[C@]2(C)C3=C(C(=O)C[C@H]2C1(C)C)[C@]1(C)CC[C@H]([C@H](C)CCC(=O)O)[C@@]1(C)CC3=O 113

Name the recorded growth of O=C1C=CC(=O)C2=C1CCCC2 , assay system UACC-257 melanoma. 95.6

Look up and report measured growth (UACC-257 melanoma) for the following compound: O=C(O)c1cccc(-n2ncc(Cl)c(Cl)c2=O)c1 89.2

Look up UACC-257 melanoma data: growth of CN(C)c1ccc2c(N(C)C)cc(N(C)C)nc2c1 , then report it. 122

Please report growth with UACC-257 melanoma for item O=C(CCl)Oc1ccc([N+](=O)[O-])cc1 . 112

Give growth for Cc1c(-c2ccc(C3CCCCC3)cc2)nc2ccc(F)cc2c1C(=O)O tested on UACC-257 melanoma. 65.2

Find the measured growth of COC1OC(C(O)C(O)CO)C(O)C(O)C1O (stereo not drawn) with UACC-257 melanoma as test system. 95.6

Report value only: growth, UACC-257 melanoma, Cc1ccc(NC(=S)N2CCOCC2)cc1C 93.5

Give growth for this entry on UACC-257 melanoma: COc1ccc2c(ccc[n+]2C)c1 98.2

GET growth where system = UACC-257 melanoma and item = Cc1ccc(S(=O)(=O)CCCl)cc1 100
